- experimental target: recombinant DYRK1A kinase (Homo sapiens (Human), UniProt Q13627)
- test method notes: DYRK1A kinase assay (Ser/Thr 18 peptide Z-lyte FRET)
- conditions used: DYRK1A kinase activity, Z-lyte Ser/Thr 18 peptide, 15 μM ATP; method text calls the value IC50; read-out: EC50 (the source's name)
pIC50: −log10 of the molar value.

{"columns": ["molecule", "pIC50"],
 "data": [
  ["COc1nc(N[C@H]2CC[C@@H](OC)CC2)nn2ccc(-c3ccn4nccc4c3)c12", 5.00],
  ["CNC(=O)c1cnc2ccc(-c3ccn4nc(N[C@H]5CC[C@@H](OC)CC5)nc(OC)c34)cn12", 8.64],
  ["COc1nc(N[C@H]2CCN(S(C)(=O)=O)C[C@H]2F)nn2ccc(-c3ccc4nnn(CC(F)F)c4c3)c12", 8.85],
  ["COc1nc(N[C@H]2CC[C@@H](NC(C)=O)CC2)nn2ccc(-c3ccc4nnn(CC(F)F)c4c3)c12", 8.64],
  ["COc1nc(N[C@@H]2CN(C(C)=O)C[C@@H]2F)nn2ccc(-c3ccc4nnn(CC(F)F)c4c3)c12", 9.10],
  ["COc1nc(NC2CCC(=O)N(C)C2)nn2ccc(-c3ccc4nnn(/C=C/F)c4c3)c12 (stereo not drawn)", 8.28],
  ["COc1nc(N[C@H]2C[C@](C)(NC(=O)OC(C)(C)C)C2)nn2ccc(-c3ccn4nccc4c3)c12", 7.59],
  ["COc1nc(N[C@H]2C[C@@](C)(N(C)C)C2)nn2ccc(-c3ccc4ncccc4c3)c12", 8.55],
  ["COc1nc(N[C@H]2CCN(C3COC3)C[C@H]2F)nn2ccc(-c3ccc4nnn(C(C)C)c4c3)c12", 8.64],
  ["COc1nc(N[C@H]2C[C@@H](OCCO)C2)nn2ccc(-c3ccc4nccnc4c3)c12", 8.72],
  ["COc1nc(N[C@@H]2CCN(C)C[C@@H]2F)nn2ccc(-c3ccc4nccnc4c3)c12", 8.48],
  ["COc1nc(N[C@H]2C[C@](C)(NC(C)=O)C2)nn2ccc(-c3cnc4nccn4c3)c12", 8.92],
  ["COc1nc(N[C@@H]2CCN(C(C)=O)CC2(F)F)nn2ccc(-c3cc(F)c4nc(C)n(CC(F)F)c4c3)c12", 8.80],
  ["COc1nc(N[C@H]2CC[C@H](NC(C)=O)CC2)nn2ccc(-c3ccn4nccc4c3)c12", 8.13],
  ["COc1nc(NC2CCN(C3COC3)CC2)nn2ccc(-c3ccc4nnn(CC(F)F)c4c3)c12", 9.52],
  ["COc1nc(N[C@H]2CC[C@](C)(O)CC2)nn2ccc(-c3ccc4nnn(/C=C/F)c4c3)c12", 8.23],
  ["COc1nc(N[C@H]2CCN(C)C[C@H]2F)nn2ccc(-c3ccn4nccc4c3)c12", 8.21],
  ["COc1nc(N[C@H]2C[C@](C)(C(=O)NC3CC3)C2)nn2ccc(-c3ccc4nc(C)n(CC(F)F)c4c3)c12", 8.64],
  ["COc1nc(N[C@H]2CCN(CCF)C[C@H]2F)nn2ccc(-c3ccc4ncccc4c3)c12", 8.39],
  ["COc1nc(N[C@H]2CC[C@](C)(O)CC2)nn2ccc(-c3ccc4ncc(C#N)n4c3)c12", 8.23],
  ["COc1nc(N[C@H]2C[C@@H](OCCO)C2)nn2ccc(-c3ccc4nnn(C)c4c3)c12", 8.70],
  ["COc1nc(N[C@H]2CCN(C3COC3)C[C@H]2F)nn2ccc(-c3ccc4nc(C)n(CC(F)F)c4c3)c12", 8.72],
  ["COc1nc(N[C@H]2CC[C@@](C)(O)CC2)nn2ccc(-c3ccn4nccc4c3)c12", 7.85],
  ["COc1nc(N[C@@H]2CCN(C(C)=O)CC2(F)F)nn2ccc(-c3ccc4nnn(CC(F)(F)F)c4c3)c12", 8.85]
]}
